Taken from PubChem BioAssay (Tox21).

# procedure-summary: Caspase-3/7 induction in HepG2 cells by small molecules, qHTS cell viability counter screen (AID 1346981); further: nearly all actives have a fitted effect of over 30% in size; further: potency means the concentration at half of the fitted maximal effect
# experimental-parameters: CellTiter-Fluor fluorescence, 17 h; series mostly up to 92.4 µM
Results filed as inconclusive are left out. Activity calls are given as the source filed them. The call rests on the fitted dose curve; in most records, active means well fitted cell-killing curve with a large enough effect in the repeat runs; inconclusive means weak or mixed curves, or effect the other way; inactive means flat fitted curve, though single readings scatter.
measured-attribute: Potency

The cases that follow already have their Potency on record.
{"molecule": "O=C1CC2(CCCC2)CC(=O)N1CCCCN1CCN(c2ncccn2)CC1", "Potency": "inactive"}
{"molecule": "COc1ccc(COC(C)=O)cc1", "Potency": "inactive"}
{"molecule": "CO[Si](OC)(OC)c1ccccc1", "Potency": "inactive"}
{"molecule": "CCN(CC)CCOc1ccc(/C(=C(\\Cl)c2ccccc2)c2ccccc2)cc1", "Potency": "55.6 µM (active)"}
{"molecule": "NC12CC3CC(CC(C3)C1)C2", "Potency": "inactive"}

Item: C=C(C)C1CC=C(C)C(OC(C)=O)C1 (configuration not stated) | Potency: inactive

Item: CCCC(=O)c1ccccc1 | Potency: inactive

###

# procedure-summary: qHTS assay for small molecule agonists of the antioxidant response element (ARE) signaling pathway - cell viability counter screen (AID 743203); further: nearly all actives have a fitted effect of over 55% in size
# experimental-parameters: ARE-bla HepG2 viability, CellTiter-Glo luminescence, 16 h; series mostly up to 73.3 µM
Results filed as inconclusive are left out. Activity calls are given as the source filed them. Calls follow the shape of the full dose curve.
Please reply with one of these outcomes: active, inactive

{"molecule": "CC(=O)C1=C(C)[C@@H]2C[C@@]3(C1)[C@H](C)CC[C@H]3C2(C)C", "assigned-class": "inactive"}
{"molecule": "Nc1nc(=S)c2[nH]cnc2[nH]1", "assigned-class": "active"}
{"molecule": "N[C@@H]1CONC1=O", "assigned-class": "inactive"}
{"molecule": "COc1nc(C)nc(Cl)c1NC1=NCCN1", "assigned-class": "inactive"}
{"molecule": "COc1ccc(Cc2cnc(N)nc2N)cc1OC", "assigned-class": "inactive"}
{"molecule": "O=C(O)CP(=O)(O)O", "assigned-class": "inactive"}
{"molecule": "c1ccc2cc3c(ccc4ccccc43)cc2c1", "assigned-class": "inactive"}
{"molecule": "Nc1cc(S(=O)(=O)O)cc2cc(S(=O)(=O)O)cc(O)c12", "assigned-class": "inactive"}

What did this assay record as the result for O=C(O)c1cc(Cl)cc(Cl)c1 ?
inactive

What did this assay record as the result for CC(C)CCOC(=O)c1ccc(N(C)C)cc1 ?
inactive

What did this assay record as the result for CC1COC(=O)O1 (stereo not drawn) ?
inactive

What did this assay record as the result for CCn1cc(C(=O)O)c(=O)c2cc(F)c(N3CCNC(C)C3)c(F)c21 (stereo not drawn) ?
inactive

What did this assay record as the result for O=C1CC2(CCCC2)CC(=O)N1CCCCN1CCN(c2ncccn2)CC1 ?
inactive

###

# procedure-summary: qHTS assay for small molecules that induce genotoxicity in human embryonic kidney cells expressing luciferase-tagged ATAD5 (AID 651632); further: nearly all actives have a fitted effect of over 15% in size
# experimental-parameters: HEK293T ATAD5-luciferase induction, 16 h; series mostly up to 83.3 µM
Records with an inconclusive call do not appear. The source made the active and inactive calls. Calls come from the whole dose curve; as a rule, active = well fitted activation curve with a large enough effect in the repeat runs; inconclusive = weak or mixed curves; inactive = no such curve, though single readings can be large or run the other way.
Please reply with one of these outcomes: YES = active, NO = inactive

Worked examples, 3 molecules total:
{"molecular-string": "CN(C)c1ccc2nc3ccc(=[N+](C)C)cc-3sc2c1", "assigned-class": "NO"}
{"molecular-string": "O=C(O)c1cn(-c2ccc(F)cc2)c2cc(N3CCNCC3)c(F)cc2c1=O", "assigned-class": "NO"}
{"molecular-string": "Cc1scc2c1N(C(=O)CN1CCN(C)CC1)c1ccccc1NC2=O", "assigned-class": "NO"}

Query molecule follows.
What did this assay record as the result for Nc1ccc2cc3ccccc3cc2c1 ?
YES
